Assay Target: human LXRβ (Homo sapiens)
Construct: expressed in transfected cells; host or cells: HEK293 cells (ATCC CRL-1573), transient transfection with pFA-hLXRβ/GAL4 and pUAS
Test Summary: Assay for Transcriptional Activity of LXRβ (GAL4-hLXRβ LBD luciferase reporter, transient transfection)
Type: cell-based
Details: fold value in comparison with the control (DMSO-treated group); HEK293 cells transfected with pFA-hLXRβ/GAL4 and pUAS; 24 hours
Experimental Readout: Emax (fold)

Example results:
CSc1ccc(-c2ccc(C3CC(C(O)(C(F)(F)F)C(F)(F)F)=NN3c3ccccc3Cl)cc2)cc1 (centres unmarked)    112
Fc1ccc(N2N=C(C(F)(F)C(F)(F)F)CC2c2cccc(-c3cncnc3)c2)c(F)c1 (centres unmarked)    39
CSc1cccc(-c2cccc(N3N=C(C(O)(C(F)(F)F)C(F)(F)F)CC3c3ccccc3Cl)c2)c1 (centres unmarked)    17

a: OC(C1=NN(c2ccc(F)cc2F)C(c2ccc(-c3ccc(-n4cnnn4)cc3)cc2)C1)(C(F)(F)F)C(F)(F)F (centres unmarked)
b: CN(CCCS(=O)(=O)c1cccc(-c2ccc(C3CC(C(O)(C(F)(F)F)C(F)(F)F)=NN3c3ccc(F)cc3F)cc2)c1)C(=O)OC(C)(C)C (centres unmarked)
Query: Lab note: check whether a or b shows the higher recorded Emax. // caller expects the label of the chosen entry
Reply: b

A: CSc1cccc(-c2ccc(C3CC(C(O)(C(F)(F)F)C(F)(F)F)=NN3c3ccccc3Cl)s2)c1 (centres unmarked)
B: CC(C)(C)OC(=O)N1CCN(c2ccc(C3CC(C(O)(C(F)(F)F)C(F)(F)F)=NN3c3ccccc3Cl)cn2)CC1 (centres unmarked)
Query: Looking at A and B , which one comes out lower in Emax terms? Your answer should be the label of the entry you select.
Reply: B
(B: 43 fold, A: 125 fold)

a: O=C(CC1CCCC1)N1CC=C(c2cccc(C3CC(C(O)(C(F)(F)F)C(F)(F)F)=NN3c3ccccc3Cl)c2)CC1 (centres unmarked)
b: CSc1ccc(-c2ccc(C3CC(C(O)(C(F)(F)F)C(F)(F)F)=NN3c3ccc(F)cc3F)cc2)cn1 (centres unmarked)
c: Fc1ccc(N2N=C(C(F)(F)C(F)(F)F)CC2c2cccc(-c3ccc(C(F)(F)F)nc3)c2)c(F)c1 (centres unmarked)
Query: Your job: order these 3 records by Emax, ascending. As an answer, provide the labels arranged in the order called for.
Reply: c, b, a
(c: 9 fold, b: 44 fold, a: 77 fold)

###

Assay Target: human LXRβ (Homo sapiens, UniProt P55055)
Construct: expressed in transfected cells; host or cells: HEK293 cells (ATCC CRL-1573), transient transfection with pFA-hLXRβ/GAL4 and pUAS
Sequence (P55055 222-460 limits assumed): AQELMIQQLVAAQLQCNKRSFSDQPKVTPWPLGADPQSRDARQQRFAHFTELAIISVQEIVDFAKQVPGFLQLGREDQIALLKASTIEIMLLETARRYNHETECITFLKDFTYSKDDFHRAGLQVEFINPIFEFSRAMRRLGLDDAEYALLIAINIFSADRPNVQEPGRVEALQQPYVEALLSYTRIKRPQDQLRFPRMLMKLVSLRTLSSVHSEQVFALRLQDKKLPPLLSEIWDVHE
Test Summary: Assay for Transcriptional Activity of LXRβ (GAL4-hLXRβ LBD luciferase reporter, transient transfection)
Assay type: cell-based
Details: fold value in comparison with the control (DMSO-treated group); HEK293 cells transfected with pFA-hLXRβ/GAL4 and pUAS; 24 hours
Experimental Readout: Emax (fold)

CS(=O)(=O)c1ccc(-c2ccc(C3CC(C(O)(C(F)(F)F)C(F)(F)F)=NN3c3ccccc3Cl)s2)cn1 (stereo not shown)    80

1: CSc1ccc(-c2cccc(C3CC(C(F)(F)C(F)(F)F)=NN3c3ccc(Cl)cc3F)c2)cc1 (stereo not shown)
2: CS(=O)(=O)c1ccc(-c2ccc(C3CC(C(O)(C(F)(F)F)C(F)(F)F)=NN3c3ccccc3Cl)cc2)cc1 (stereo not shown)
Query: Which item exceeds the other in Emax, 1 or 2 ? Answer format: the label of the selected item.
Reply: 2
(2: 100 fold, 1: 28 fold)

These entries and their values trace back to patent US9376420B2.
